- assay.summary: Catalepsy assay
- condition.description: both, Kunming (KM), mouse, in vivo, po
Give ED50 for every item shown.
Kindly provide the numeric value in mg/kg only, without the unit symbol.

Incoming: State, in one line, measured ED50 of COc1ccccc1N1CCN(CCCCOc2ccc3c4c(c(=O)oc3c2)CCCC4)CC1
Outgoing: 156

Incoming: Give ED50 for O=c1oc2c(Cl)c(OCCCCN3CCN(c4nsc5ccccc45)CC3)ccc2c2c1CCC2
Outgoing: 189

Incoming: Answer with the recorded ED50 for the molecule listed here: O=c1oc2cc(OCCCN3CCC(c4noc5cc(F)ccc45)CC3)ccc2c2c1CCC2
Outgoing: 168

Incoming: Report ED50, nothing else, for this molecule: O=c1oc2c(Cl)c(OCCCCN3CCC(c4noc5cc(F)ccc45)CC3)ccc2c2c1CCC2
Outgoing: 98.9

Incoming: Indicate its recorded ED50; the molecule in question is COc1ccccc1N1CCN(CCCCOc2ccc3c4c(c(=O)oc3c2)CCC4)CC1
Outgoing: 261

###

- Test system: KM mice
- assay.summary: Apomorphine induced clambering assay of mice
- Format: in vivo
- condition.description: dosage 3 mg/kg, x ± s, n = 10
For each entry below, report its Scoring (value), apomorphine induced clambering value.
Answer with a bare number; do not write a unit.

Incoming: Indicate its recorded Scoring (value), apomorphine induced clambering; the compound in question is O=C1Cc2cc(CCN3CCN(c4nsc5ccccc45)CC3)c(Cl)cc2N1
Outgoing: 0.70

Incoming: Item O=c1oc2c(Cl)c(OCCCCN3CCN(c4nsc5ccccc45)CC3)ccc2c2c1CCC2 : provide Scoring (value), apomorphine induced clambering
Outgoing: 0.25

Incoming: # return recorded Scoring (value), apomorphine induced clambering for entry COc1ccccc1N1CCN(CCCCOc2ccc3c4c(c(=O)oc3c2)CCCC4)CC1
Outgoing: 0.40

Incoming: Indicate its recorded Scoring (value), apomorphine induced clambering; the compound in question is O=C1CCc2ccc(OCCCCN3CCN(c4cccc(Cl)c4Cl)CC3)cc2N1
Outgoing: 2.30

Incoming: Query Scoring (value), apomorphine induced clambering for O=c1oc2cc(OCCCN3CCC(c4noc5cc(F)ccc45)CC3)ccc2c2c1CCC2
Outgoing: 0.20

Incoming: Name the recorded Scoring (value), apomorphine induced clambering of the item OCCOCCN1CCN(C2=Nc3ccccc3Sc3ccccc32)CC1 in your answer.
Outgoing: 4.00

Incoming: Tell me Scoring (value), apomorphine induced clambering reported for O=c1oc2c(Cl)c(OCCCCN3CCC(c4noc5cc(F)ccc45)CC3)ccc2c2c1CCC2
Outgoing: 0.50

Incoming: Given the compound Cc1cc2c(s1)Nc1ccccc1N=C2N1CCN(C)CC1 , write its reported Scoring (value), apomorphine induced clambering.
Outgoing: 0.30

Incoming: Respond only with Scoring (value), apomorphine induced clambering recorded for COc1ccccc1N1CCN(CCCCOc2ccc3c4c(c(=O)oc3c2)CCC4)CC1
Outgoing: 3.50

###

- experimental.system: D3 receptor (Homo sapiens (Human), UniProt P35462)
- Sequence (P35462 whole entry): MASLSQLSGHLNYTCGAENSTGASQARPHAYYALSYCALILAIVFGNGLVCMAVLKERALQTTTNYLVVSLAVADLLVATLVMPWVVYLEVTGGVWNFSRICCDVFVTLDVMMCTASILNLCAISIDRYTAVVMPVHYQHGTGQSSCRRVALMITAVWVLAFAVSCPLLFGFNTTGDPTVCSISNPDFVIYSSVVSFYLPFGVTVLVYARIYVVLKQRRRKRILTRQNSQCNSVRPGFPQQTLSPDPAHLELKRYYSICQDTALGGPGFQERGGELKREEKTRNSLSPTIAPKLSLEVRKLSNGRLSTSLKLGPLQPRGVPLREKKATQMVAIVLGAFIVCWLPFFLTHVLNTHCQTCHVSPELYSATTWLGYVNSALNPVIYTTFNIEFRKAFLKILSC
So basically: is IC50 under 9 nM? Then Satisfied. Not under? Then Not satisfied.

Incoming: Threshold test, IC50 < 9 nM: COc1ccccc1N1CCN(CCCCOc2ccc3c4c(c(=O)oc3c2)CCCC4)CC1 [Compound 19]
Outgoing: Not satisfied

Incoming: IC50 under 9 nM? Item: O=c1oc2c(Cl)c(OCCCCN3CCC(c4noc5cc(F)ccc45)CC3)ccc2c2c1CCC2 [Compound 15]
Outgoing: Satisfied

Incoming: Please state whether IC50 is below 9 nM for O=c1oc2c(Cl)c(OCCCCN3CCN(c4nsc5ccccc45)CC3)ccc2c2c1CCC2 [Compound 14]
Outgoing: Not satisfied

Incoming: Criterion: IC50 strictly below 9 nM. Is it met by COc1ccccc1N1CCN(CCCCOc2ccc3c4c(c(=O)oc3c2)CCC4)CC1 [Compound 7] ?
Outgoing: Satisfied
